Reference source: patent US9216998B2

target: human endothelial lipase (EL) (Homo sapiens (Human), UniProt Q9Y5X9); assay: Endothelial lipase assay, cell surface lipase activity (human EL); conditions: cells expressing human EL, PLA1 substrate 10 μM, fluorescence rate
Sequence (Q9Y5X9 21-500): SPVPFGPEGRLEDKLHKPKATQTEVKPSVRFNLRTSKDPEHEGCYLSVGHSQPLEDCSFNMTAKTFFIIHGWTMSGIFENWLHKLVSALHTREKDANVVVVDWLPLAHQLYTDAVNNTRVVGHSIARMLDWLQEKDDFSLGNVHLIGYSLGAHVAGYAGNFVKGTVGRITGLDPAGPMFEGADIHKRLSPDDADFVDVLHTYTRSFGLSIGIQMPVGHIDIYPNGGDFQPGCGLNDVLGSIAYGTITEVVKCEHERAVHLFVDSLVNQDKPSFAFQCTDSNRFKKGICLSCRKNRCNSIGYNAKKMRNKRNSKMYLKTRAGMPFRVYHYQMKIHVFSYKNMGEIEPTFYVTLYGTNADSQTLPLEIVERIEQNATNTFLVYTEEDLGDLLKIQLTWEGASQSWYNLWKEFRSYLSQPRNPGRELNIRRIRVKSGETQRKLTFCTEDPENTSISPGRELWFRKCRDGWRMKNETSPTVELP
pIC50: −log10 of the molar value.
So basically: pIC50 at 7 or higher? That is 1. Lower than 7? That is 0.

{"columns": ["COMPOUND", "GROUP_LABEL"],
 "data": [
  ["FC(F)(F)c1c(CCCc2ccccc2)n2c3c(cccc13)CC2 [Compound 1]", 0],
  ["N=C(N)N1CCn2c(CCc3ccccc3)c(C(F)(F)F)c3cccc(c32)C1 [Compound 17]", 0],
  ["FC(F)(F)c1c(CCCc2ccccc2)n2c3c(cccc13)OCC2 [Compound 26]", 0],
  ["FC(F)(F)c1c(CCc2ccccc2)n2c3c(cccc13)OCC2 [Compound 25]", 1]
]}

In the following, a different compound is considered.
Request: Threshold query (pIC50 >= 7) on OCCN1CCn2c(CCc3ccccc3)c(C(F)(F)F)c3cccc(c32)C1 [Compound 23]
Response: 0

###

molecular target: human endothelial lipase (EL) (Homo sapiens (Human)); assay: Endothelial lipase assay, cell surface lipase activity (human EL); settings: cells expressing human EL, PLA1 substrate 10 μM, fluorescence rate
MEASURED_QUANTITY: pIC50
Give bare numbers, as −log10 of the molar value.

{"columns": ["MOLECULE", "pIC50"],
 "data": [
  ["FC(F)(F)c1c(CCc2ccccc2)n2c3c(cccc13)CCCC2", 7.37],
  ["O=C(Nc1ccccc1)N1CCn2c(CCc3ccccc3)c(C(F)(F)F)c3cccc(c32)C1", 6.77],
  ["NCC(=O)N1CCn2c(CCc3ccccc3)c(C(F)(F)F)c3cccc(c32)C1", 5.70],
  ["FC(F)(F)c1c(CCc2ccccc2)n2c3c(cccc13)CNCC2", 6.16]
]}

# batch: return pIC50 for each of the 3 molecules below
1. COc1cc2c3c(c1)c(C(F)(F)F)c(CCc1ccccc1)n3CCC2
2. FC(F)(F)c1c(CCCc2ccccc2)n2c3c(cccc13)CCCC2
3. CS(=O)(=O)N1CCn2c(CCc3ccccc3)c(C(F)(F)F)c3cccc(c32)C1

Response:
7.85
6.44
6.73

# batch: return pIC50 for each of the 3 molecules below
1. CC(C)(C)OC(=O)N1CCn2c(CCc3ccccc3)c(C(F)(F)F)c3cccc(c32)C1
2. FC(F)(F)c1c(CCc2ccccc2)n2c3c(cccc13)CCC2 [Compound 2, reference compound]
3. FC(F)(F)c1c(CCCc2ccccc2)n2c3c(cccc13)CCC2

Response:
1: 6.82; 2: 7.66; 3: 6.84

###

Consider the following compounds; for each one, report its pIC50.
molecular target: human endothelial lipase (EL) (Homo sapiens (Human), UniProt Q9Y5X9); assay: Endothelial lipase assay, cell surface lipase activity (human EL); details: cells expressing human EL, PLA1 substrate 10 μM, fluorescence rate
Numbers only, as −log10 of the molar value.

{"columns": ["COMPOUND", "pIC50"],
 "data": [
  ["O=C(CC(F)(F)F)N1CCn2c(CCc3ccccc3)c(C(F)(F)F)c3cccc(c32)C1 [Compound 21]", 6.59],
  ["CN(C)CC(=O)N1CCn2c(CCc3ccccc3)c(C(F)(F)F)c3cccc(c32)C1 [Compound 16]", 6.02],
  ["CC(=O)OCC(=O)N1CCn2c(CCc3ccccc3)c(C(F)(F)F)c3cccc(c32)C1 [Compound 20]", 6.35]
]}

Request: Report pIC50 for FC(F)(F)c1c(CCCc2ccccc2)n2c3c(cccc13)SCC2 [Compound 28] please.
Response: 4.48

###

target: Mouse EL (Mus musculus (Mouse)); assay: Endothelial lipase assay, cell surface lipase activity (mouse EL); settings: PLA1 substrate 10 μM, fluorescence rate
Sequence (Q9WVG5 21-500): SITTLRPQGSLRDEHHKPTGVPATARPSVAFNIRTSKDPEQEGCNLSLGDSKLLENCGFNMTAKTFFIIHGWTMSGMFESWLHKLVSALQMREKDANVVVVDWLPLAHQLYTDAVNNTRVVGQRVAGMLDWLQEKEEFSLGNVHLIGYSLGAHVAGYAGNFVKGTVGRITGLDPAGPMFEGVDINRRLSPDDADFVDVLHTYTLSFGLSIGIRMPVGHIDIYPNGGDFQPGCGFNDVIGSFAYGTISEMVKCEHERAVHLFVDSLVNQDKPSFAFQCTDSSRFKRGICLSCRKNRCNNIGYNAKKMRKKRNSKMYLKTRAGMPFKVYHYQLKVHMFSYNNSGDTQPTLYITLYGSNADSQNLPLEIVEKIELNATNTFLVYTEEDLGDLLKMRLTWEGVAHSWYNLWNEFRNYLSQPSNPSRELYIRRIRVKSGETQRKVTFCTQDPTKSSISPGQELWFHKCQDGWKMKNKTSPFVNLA
Consider the following compounds; for each one, report its pIC50.
Numbers only, as −log10 of the molar value.

{"columns": ["COMPOUND", "TESTED_SYSTEM", "pIC50"],
 "data": [
  ["CC(C)(C)OC(=O)N1CCn2c(CCc3ccccc3)c(C(F)(F)F)c3cccc(c32)C1 [Compound 13]", "Mouse EL (Mus musculus (Mouse))", 6.91]
]}

# batch: return pIC50 for each of the 5 compounds below
1. OCCN1CCn2c(CCc3ccccc3)c(C(F)(F)F)c3cccc(c32)C1 [Compound 23]
2. CS(=O)(=O)N1CCn2c(CCc3ccccc3)c(C(F)(F)F)c3cccc(c32)C1 [Compound 24]
3. COc1cc2c3c(c1)c(C(F)(F)F)c(CCc1ccccc1)n3CCC2 [Compound 5]
4. CC(C)NC(=O)N1CCn2c(CCc3ccccc3)c(C(F)(F)F)c3cccc(c32)C1 [Compound 12]
5. FC(F)(F)c1c(CCc2ccccc2)n2c3c(cccc13)CCC2 [Compound 2, reference compound]

Response:
1: 6.46; 2: 6.47; 3: 7.77; 4: 6.88; 5: 7.32

# batch: return pIC50 for each of the 7 compounds below
1. FC(F)(F)c1c(CCc2ccccc2)n2c3c(cccc13)OCC2 [Compound 25]
2. Oc1cc2c3c(c1)c(C(F)(F)F)c(CCc1ccccc1)n3CCC2 [Compound 6]
3. O=C(Nc1ccccc1)N1CCn2c(CCc3ccccc3)c(C(F)(F)F)c3cccc(c32)C1 [Compound 14]
4. FC(F)(F)c1c(CCCc2ccccc2)n2c3c(cccc13)CCCC2 [Compound 11]
5. FC(F)(F)c1c(CCc2ccccc2)n2c3c(cccc13)CNCC2 [Compound 15]
6. FC(F)(F)c1c(CCCc2ccccc2)n2c3c(cccc13)CCC2 [Compound 4]
7. NCC(=O)N1CCn2c(CCc3ccccc3)c(C(F)(F)F)c3cccc(c32)C1 [Compound 18]

Response:
1. 7.51
2. 6.87
3. 6.79
4. 5.92
5. 6.17
6. 6.69
7. 5.72

# batch: return pIC50 for each of the 2 compounds below
1. CN(C)CC(=O)N1CCn2c(CCc3ccccc3)c(C(F)(F)F)c3cccc(c32)C1 [Compound 16]
2. FC(F)(F)c1c(CCCc2ccccc2)n2c3c(cccc13)OCC2 [Compound 26]

Response:
[6.00, 6.21]

###

target: human endothelial lipase (EL) (Homo sapiens (Human), UniProt Q9Y5X9); assay: Endothelial lipase assay, cell surface lipase activity (human EL); conditions: cells expressing human EL, PLA1 substrate 10 μM, fluorescence rate
MEASURED_QUANTITY: pIC50
Numbers only, as −log10 of the molar value.

These solved cases illustrate the format of a correct answer.
{"columns": ["COMPOUND", "TESTED_SYSTEM", "QUANTITATIVE_READOUT"],
 "data": [
  ["FC(F)(F)c1c(Cc2ccccc2)n2c3c(cccc13)CCC2 [Compound 3]", "human endothelial lipase (EL) (Homo sapiens (Human), UniProt Q9Y5X9)", 6.94],
  ["Oc1cc2c3c(c1)c(C(F)(F)F)c(CCc1ccccc1)n3CCC2 [Compound 6]", "human endothelial lipase (EL) (Homo sapiens (Human), UniProt Q9Y5X9)", 7.15],
  ["FC(F)(F)c1c(CCCOc2ccccc2)n2c3c(cccc13)OCC2 [Compound 27]", "human endothelial lipase (EL) (Homo sapiens (Human), UniProt Q9Y5X9)", 7.09]
]}

Next item in the queue.
Request: Report pIC50 for CC(C)NC(=O)N1CCn2c(CCc3ccccc3)c(C(F)(F)F)c3cccc(c32)C1 [Compound 12] please.
Response: 6.87

###

target: Mouse EL (Mus musculus (Mouse)); test: Endothelial lipase assay, cell surface lipase activity (mouse EL); conditions: PLA1 substrate 10 μM, fluorescence rate
pIC50: −log10 of the molar value.
So basically: pIC50 at 7 or higher? That is satisfied. Lower than 7? That is not satisfied.

Known results for molecules:
{"columns": ["SMILES_ENTRY", "TESTED_SYSTEM", "GROUP_LABEL"],
 "data": [
  ["O=C(CC(F)(F)F)N1CCn2c(CCc3ccccc3)c(C(F)(F)F)c3cccc(c32)C1", "Mouse EL (Mus musculus (Mouse))", "not satisfied"],
  ["FC(F)(F)c1c(CCCc2ccccc2)n2c3c(cccc13)SCC2", "Mouse EL (Mus musculus (Mouse))", "not satisfied"],
  ["FC(F)(F)c1c(CCc2ccccc2)n2c3c(cccc13)CCCC2", "Mouse EL (Mus musculus (Mouse))", "satisfied"],
  ["CC(=O)OCC(=O)N1CCn2c(CCc3ccccc3)c(C(F)(F)F)c3cccc(c32)C1", "Mouse EL (Mus musculus (Mouse))", "not satisfied"],
  ["N=C(N)N1CCn2c(CCc3ccccc3)c(C(F)(F)F)c3cccc(c32)C1", "Mouse EL (Mus musculus (Mouse))", "not satisfied"]
]}

In the following, a different molecule is considered.
Request: Threshold query (pIC50 >= 7) on FC(F)(F)c1c(CCCc2ccccc2)n2c3c(cccc13)CC2
Response: not satisfied
